Examples of compounds with documented pEC50 follow.
# Tested on: genotype 1a-H77 subgenomic replicon cell line
# Procedure Details: microbe, parasite or virus in culture
# Assay type: cell-based, HCV
# Conditions: Hepatitis C virus, read-out: EC50 1a
pEC50: −log10 of the molar value.

These recorded examples may help you get a feel for the data.
CC(C)(C)c1cc(N2CCC(=O)NC2=O)cc(C(=O)Nc2ccc3ncccc3c2)c1O | < 6.00
COC(=O)c1cc(-n2ccc(=O)[nH]c2=O)cc(-c2ccc3cc(NS(C)(=O)=O)ccc3c2)c1OC | < 6.00
CC(C)(C)c1cc(N2CCC(=O)NC2=O)cc(C(=O)Nc2cc(CNS(C)(=O)=O)cs2)c1O | 6.00 to 7.00
COc1c(C#Cc2ccc(NS(C)(=O)=O)nc2)cc(N2CCC(=O)NC2=O)cc1C(C)(C)C [IA-L2-1.26, 2,2,2-trifluoroacetate] | 7.00 to 8.00
COc1c(-c2ccc(CCNS(C)(=O)=O)cc2)cc(-n2ccc(=O)[nH]c2=O)cc1C(C)(C)C | 6.00 to 7.00

Can you look up the measured pEC50 of COc1c(-c2ccc3c(c2)CC[C@@H]3CNS(C)(=O)=O)cc(-n2ccc(=O)[nH]c2=O)cc1C(C)(C)C (single isomer, unassigned) for me?
> 8.00

Let us now turn to "COc1c(-c2ccc3cc(CNS(C)(=O)=O)sc3c2)cc(-n2ccc(=O)[nH]c2=O)cc1C(C)(C)C"
< 6.00

Let us now turn to "COc1c(/C=C/c2ccc(NS(C)(=O)=O)cc2CNCCC(C)C)cc(-n2ccc(=O)[nH]c2=O)cc1C(C)(C)C"
< 6.00

Let us now turn to "CO/C(=C\c1cc(N2CCC(=O)NC2=O)cc(C(C)(C)C)c1OC)c1ccc(NS(C)(=O)=O)cc1"
7.00 to 8.00

Let us now turn to "COc1c(C(=O)Nc2ccc(NS(=O)(=O)c3c(C)noc3C)cc2)cc(N2CCC(=O)NC2=O)cc1C(C)(C)C"
< 6.00

Let us now turn to "COc1c(C#Cc2ccc(NS(C)(=O)=O)cc2C)cc(-n2ccc(=O)[nH]c2=O)cc1C(C)(C)C"
> 8.00

Let us now turn to "COc1c(I)cc(-n2ccc(=O)[nH]c2=O)cc1-c1ccc2cc(NS(C)(=O)=O)ccc2c1"
6.00 to 7.00

Let us now turn to "COc1c(-c2nc3ccc([N+](=O)[O-])cc3o2)cc(N2CCC(=O)NC2=O)cc1C(C)(C)C"
< 6.00

Let us now turn to COc1c(-c2ccc3c(c2)CCC3NS(C)(=O)=O)cc(-n2ccc(=O)[nH]c2=O)cc1C(C)(C)C (stereo not drawn)
< 6.00

Let us now turn to "CC(C)(C)c1cc(N2CCC(=O)NC2=O)cc(NC(=O)c2ccc(NS(C)(=O)=O)cc2)c1O"
< 6.00

Let us now turn to "CC(C)(C)c1cc(-n2ccc(=O)[nH]c2=O)cc(-c2ccc3c(CNS(C)(=O)=O)csc3c2)c1Cl"
< 6.00

Let us now turn to "CC(C)(C)c1cc(-n2ccc(=O)[nH]c2=O)cc(-c2ccc3cc(NS(C)(=O)=O)ccc3c2)c1Cl"
6.00 to 7.00

Let us now turn to "COc1c(-c2ccc3c(c2)CCN3S(C)(=O)=O)cc(-n2ccc(=O)[nH]c2=O)cc1C(C)(C)C"
6.00 to 7.00

These data points were gathered from patent US8415351B2.
